Cited source: patent US5312815A

# protocol.text: Plasma level in dogs (HPLC)
# Type: in vivo, beagles (dogs)
# measurement.context: dog, plasma, po, 10 mg/kg, suspension in 0.5% MC, 0.5 h
# Procedure: Two beagles per group each received an oral preparation of an inclusion complex composed of the compound of Example 1 and maltosyl-β-cyclodextrin (G2 -β-CyD) at a dose of 10 mg of the compound of Example 1 per kg-b.w. or an intravenous injection of the inclusion complex at a dose of 5 mg of the compound of Example 1 per kg-b.w. […] After deproteination, the concentration of the compound of formula (I) in the sample was determined by high performance liquid chromatography (HPLC).
endpoint.name: concentration at 0.5 h (ng/mL)
One number for each entry, in ng/mL.

Ask: # query: concentration at 0.5 h of entry CC(C)(Sc1ccc(-n2cncn2)nn1)C(O)(Cn1cncn1)c1ccc(F)cc1F (single isomer, unassigned; (+)) [Example 1]
Reply: 300

---

# protocol.text: Plasma level in dogs (HPLC)
# Assay type: in vivo, beagles (dogs)
# measurement.context: dog, plasma, po, 10 mg/kg, suspension in 0.5% MC, 3 h
endpoint.name: concentration at 3 h (µg/mL)
Give bare numbers, in µg/mL.

Ask: # query: concentration at 3 h of entry CC(C)(Sc1ccc(-n2cncn2)nn1)C(O)(Cn1cncn1)c1ccc(F)cc1F (single isomer, unassigned; (+)) [Example 1]
Reply: 0.2

---

# protocol.text: Plasma level in dogs (HPLC)
# Assay type: in vivo, beagles (dogs)
# measurement.context: dog, plasma, po, 10 mg/kg, suspension in 0.5% MC, 2 h
endpoint.name: concentration at 2 h (µg/mL)
Numbers only, in µg/mL.

Ask: # query: concentration at 2 h of entry CC(C)(Sc1ccc(-n2cncn2)nn1)C(O)(Cn1cncn1)c1ccc(F)cc1F (single isomer, unassigned; (+))
Reply: 0.3

---

# protocol.text: Plasma level in dogs (HPLC)
# Assay type: in vivo, beagles (dogs)
# measurement.context: dog, plasma, po, 10 mg/kg, suspension in 0.5% MC, 8 h
endpoint.name: concentration at 8 h
Answer with the figure and its unit, nothing else.

Ask: # query: concentration at 8 h of entry CC(C)(Sc1ccc(-n2cncn2)nn1)C(O)(Cn1cncn1)c1ccc(F)cc1F (single isomer, unassigned; (+))
Reply: 300 ng/mL

---

# protocol.text: Plasma level in dogs (HPLC)
# Type: in vivo, beagles (dogs)
# measurement.context: dog, plasma, iv, 5 mg/kg, G2-β-CyD inclusion complex, 24 h
endpoint.name: concentration at 24 h (ng/mL)
Answers are plain numbers, in ng/mL.

Ask: # query: concentration at 24 h of entry CC(C)(Sc1ccc(-n2cncn2)nn1)C(O)(Cn1cncn1)c1ccc(F)cc1F (single isomer, unassigned; (+)) [Example 1]
Reply: 300
